# assay_target: T1, soluble heterodimeric hCD3ε/δ.mFc protein (human)
# T1 construct: also called soluble human CD3; soluble heterodimeric CD3 protein
# T1 chain 1: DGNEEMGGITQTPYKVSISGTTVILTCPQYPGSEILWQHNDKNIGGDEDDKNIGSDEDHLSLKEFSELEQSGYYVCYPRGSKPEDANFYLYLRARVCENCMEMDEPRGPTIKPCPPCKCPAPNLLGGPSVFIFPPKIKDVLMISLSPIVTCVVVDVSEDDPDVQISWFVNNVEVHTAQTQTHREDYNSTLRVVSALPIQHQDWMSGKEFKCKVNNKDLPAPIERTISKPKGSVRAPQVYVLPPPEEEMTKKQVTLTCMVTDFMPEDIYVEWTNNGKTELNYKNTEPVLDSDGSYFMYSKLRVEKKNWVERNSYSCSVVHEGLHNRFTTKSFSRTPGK
# T1 chain 2: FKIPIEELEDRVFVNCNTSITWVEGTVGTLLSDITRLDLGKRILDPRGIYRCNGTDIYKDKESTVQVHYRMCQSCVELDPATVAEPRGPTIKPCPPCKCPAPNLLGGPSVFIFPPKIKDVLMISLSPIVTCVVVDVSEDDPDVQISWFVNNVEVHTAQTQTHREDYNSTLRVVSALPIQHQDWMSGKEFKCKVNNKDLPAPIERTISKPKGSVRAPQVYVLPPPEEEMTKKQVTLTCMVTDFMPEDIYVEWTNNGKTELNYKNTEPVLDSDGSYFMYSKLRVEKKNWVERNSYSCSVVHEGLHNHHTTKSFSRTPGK
# assay: SPR MASS-1, 37 C, antigen-capture (hCD3ε/δ.mFc captured), antibody injected
Consider the following binders and their measured kon readings.
Express it in M⁻¹ s⁻¹; write the number only.

Example entries and their recorded answers appear below.
INSERT INTO assay_data (binder, unit_name, reported) VALUES
  ('BSPSMA/CD3-1000 (bispecific antibody, IgG4, V domains shown, modified (chimeric) IgG4 Fc domain; also called PSMA-VH-11810 x CD3-VH-G10) VH 1: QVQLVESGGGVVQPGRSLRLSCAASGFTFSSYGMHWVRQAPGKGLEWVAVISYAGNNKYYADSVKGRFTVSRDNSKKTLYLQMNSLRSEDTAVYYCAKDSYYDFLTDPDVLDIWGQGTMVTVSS VH 2: EVQLVESGGGLVQPGRSLRLSCAASGFTFDDYSMHWVRQAPGKGLEWVSGISWNSGSKGYADSVKGRFTISRDNAKNSLYLQMNSLRAEDTALYYCAKYGSGYGKFYYYGLDVWGQGTTVTVSS VL: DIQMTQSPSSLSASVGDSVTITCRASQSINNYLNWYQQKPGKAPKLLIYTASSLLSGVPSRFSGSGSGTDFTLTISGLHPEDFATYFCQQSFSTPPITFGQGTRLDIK', 'M⁻¹ s⁻¹', 34400),
  ('BSPSMA/CD3-1900 (bispecific antibody, IgG4, V domains shown, modified (chimeric) IgG4 Fc domain; also called PSMA-VH-11810 x CD3-VH-G19) VH 1: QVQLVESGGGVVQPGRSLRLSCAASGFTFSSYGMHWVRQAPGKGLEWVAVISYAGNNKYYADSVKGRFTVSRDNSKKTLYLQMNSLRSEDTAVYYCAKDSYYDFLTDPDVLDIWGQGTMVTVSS VH 2: EVQLVESGGGLVQPGRSLRLSCAASGFTFDDYSMHWVRQAPGKGLEWVSGISWNSGSIGYADSVKGRFTISRDNAKNSLYLQMNSLRAEDTALYYCAKDGSGYGKFYHYGMDVWGQGTTVTVSS VL: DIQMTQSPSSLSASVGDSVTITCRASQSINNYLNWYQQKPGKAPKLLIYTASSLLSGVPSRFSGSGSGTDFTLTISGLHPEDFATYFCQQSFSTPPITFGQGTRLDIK', 'M⁻¹ s⁻¹', 44300),
  ('BSPSMA/CD3-800 (bispecific antibody, IgG4, V domains shown, modified (chimeric) IgG4 Fc domain; also called PSMA-VH-11810 x CD3-VH-G8) VH 1: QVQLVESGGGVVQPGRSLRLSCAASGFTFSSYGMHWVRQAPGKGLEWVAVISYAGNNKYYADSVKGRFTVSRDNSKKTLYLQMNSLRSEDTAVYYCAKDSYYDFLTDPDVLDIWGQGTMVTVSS VH 2: EVQLVESGGGLVQPGRSLRLSCAASGFTFDDYSMHWVRQAPGKGLEWVSGISWNSGSIGYADSVKGRFTISRDNAKNSLYLQMNSLRAEDTALYYCAKYGSGYGKFYHYGLDVWGQGTTVTVSS VL: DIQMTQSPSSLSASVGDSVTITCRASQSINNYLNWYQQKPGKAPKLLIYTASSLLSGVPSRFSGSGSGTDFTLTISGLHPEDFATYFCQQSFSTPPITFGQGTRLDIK', 'M⁻¹ s⁻¹', 59500);

query: Data request, read-out kon, for BSPSMA/CD3-1700 (bispecific antibody, IgG4, V domains shown, modified (chimeric) IgG4 Fc domain; also called PSMA-VH-11810 x CD3-VH-G17) VH 1: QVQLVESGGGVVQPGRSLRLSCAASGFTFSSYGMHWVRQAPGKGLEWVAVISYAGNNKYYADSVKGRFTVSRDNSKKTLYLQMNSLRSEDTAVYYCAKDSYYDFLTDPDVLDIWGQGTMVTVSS VH 2: EVQLVESGGGLVQPGRSLRLSCAASGFTFDDYSMHWVRQAPGKGLEWVSGISWNSGSKGYADSVKGRFTISRDNAKNSLYLQMNSLRAEDTALYYCAKYGSGYGKFYYYGMDVWGQGTTVTVSS VL: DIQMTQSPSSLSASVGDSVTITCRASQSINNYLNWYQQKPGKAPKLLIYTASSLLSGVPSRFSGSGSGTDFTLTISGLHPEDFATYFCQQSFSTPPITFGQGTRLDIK
result: 47000
